Item-by-item account of koff
Biological target: T1, Human GPC3 (2119-GP; R&D systems), biotinylated (human, UniProt P51654 25-559, biotinylated using standard NHS chemistry)
T1 construct: Bought protein; also called human Glypican-3
T1 sequence (P51654 25-559 limits assumed): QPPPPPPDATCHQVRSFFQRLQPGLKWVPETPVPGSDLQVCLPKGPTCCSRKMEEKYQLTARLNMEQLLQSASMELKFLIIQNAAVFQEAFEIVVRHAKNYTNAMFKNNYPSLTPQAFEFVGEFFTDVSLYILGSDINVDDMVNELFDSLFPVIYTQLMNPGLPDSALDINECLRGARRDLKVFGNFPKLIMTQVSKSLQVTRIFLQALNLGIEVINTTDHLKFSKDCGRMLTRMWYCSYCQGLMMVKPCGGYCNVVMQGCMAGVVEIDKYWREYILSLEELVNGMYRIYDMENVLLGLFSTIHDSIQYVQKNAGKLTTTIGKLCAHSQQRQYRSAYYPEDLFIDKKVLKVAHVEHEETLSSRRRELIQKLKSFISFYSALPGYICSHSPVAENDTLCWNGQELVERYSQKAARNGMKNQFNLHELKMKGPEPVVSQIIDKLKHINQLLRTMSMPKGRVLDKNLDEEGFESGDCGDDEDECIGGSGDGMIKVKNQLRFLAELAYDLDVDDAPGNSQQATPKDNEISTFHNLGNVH
Assay: SPR (Biacore T200), biotinylated GPC3 captured on chip, mutein in flow
MEASUREMENT TYPE: koff

BINDER: lipocalin mutein of SEQ ID NO: 7 (designed binder, hNGAL (Lcn2) mutein; also called optimized GPC3 specific lipocalin mutein) QDSTSDLIPAPPLSKVPLQQNFQDNQFQGKWYVVGVAGNGMLREDKDPLKMRATIYELKEDKSYDVTSVAFRNKKCHYKIGTFVPGSQPGEFTLGQIKSGPGETSNLVRVVSTNYNQHAMVFFKEVRQNREWFFITLYGRTKELTSELKENFIRFSKSLGLPENHIVFPVPIDQCIDGSAWSHPQFEK
MEASUREMENT TYPE: koff
TEST VALUE: 0.00013 s⁻¹

BINDER: lipocalin mutein of SEQ ID NO: 16 (designed binder, hNGAL (Lcn2) mutein; also called optimized GPC3 specific lipocalin mutein) QDSTSDLIPAPPLSKVPLQQNFQDNQFQGKWYVVGRAGNVGLREDKDPPKMRATIYELKEDKSYDVTGVRFDSKKVTYSIGTFVPGSQPGEFTLGQIKSEPGNTANLVRVVSTNYNQHAMVFFKEVYQNREIFFIILYGRTKELTSELKENFIRFSKSLGLPENHIVFPVPIDQAIDGSAWSHPQFEK
MEASUREMENT TYPE: koff
TEST VALUE: 0.00011 s⁻¹

BINDER: lipocalin mutein of SEQ ID NO: 13 (designed binder, hNGAL (Lcn2) mutein; also called optimized GPC3 specific lipocalin mutein) QDSTSDLIPAPPLSKVPLQQNFQDNQFQGKWYVVGRAGNLGLREDKDPPKMWATIYELKEDKSYDVTNVRFARKKCMYSIGTFVPGSQPGEFTLGQIKSEPGSTANLVRVVSTNYNQHAMVFFKEVYQNREIFFITLYGRTKELTSELKENFIRFSKSLGLPENHIVFPVPIDQCIDGSAWSHPQFEK
MEASUREMENT TYPE: koff
TEST VALUE: 0.00018 s⁻¹

BINDER: lipocalin mutein of SEQ ID NO: 6 (designed binder, hNGAL (Lcn2) mutein; also called optimized GPC3 specific lipocalin mutein) QDSTSDLIPAPPLSKVPLQQNFQDNQFQGKWYVVGVAGNVRLREDKDPPKMRATIYELKEDKSYDVTGVSFRGKKCHYKIGTFVPGSQPGEFTLGDIKSGPGETSNLVRVVSTNYNQHAMVFFKEVRQNREWFFITLYGRTKELTSELKENFIRFSKSLGLPENHIVFPVPIDQCIDGSAWSHPQFEK
MEASUREMENT TYPE: koff
TEST VALUE: 3.3e-05 s⁻¹

BINDER: lipocalin mutein of SEQ ID NO: 3 (designed binder, hNGAL (Lcn2) mutein; also called non-optimized GPC3-specific Lcn2 mutein; mother clone) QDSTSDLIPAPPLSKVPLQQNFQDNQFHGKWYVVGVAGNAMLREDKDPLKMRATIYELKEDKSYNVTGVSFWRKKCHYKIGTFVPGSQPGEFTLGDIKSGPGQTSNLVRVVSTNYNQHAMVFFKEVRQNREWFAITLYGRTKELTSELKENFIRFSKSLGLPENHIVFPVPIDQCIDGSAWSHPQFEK
MEASUREMENT TYPE: koff
TEST VALUE: 0.00022 s⁻¹

FYI, the data here is from patent US20180141988A1.
